protocol-details: Stability of DNPs by DLS after storage at 5° C.
Format: physicochemical
Parameters: key: Excellent: the original sizes and distribution types remained almost the same after storage; Good: the original sizes and distribution types changed slightly (size difference was less than 100 nm) or the original size remained almost the same but the DLS curve showed more size distributions after storage
condition-notes: after 35 days at 5° C.
Experimental: The stability of the DNPs as assayed by DLS. All the samples are prepared in acetate buffer. […]
property: Ranking of stability

{"molecule": "CCCCCCCCCCCCCCCOc1cc(COC(=O)CCCN2CCN(CCO)CC2)cc(OCCCCCCCC)c1 [IAJD 138]", "readout-value": "Good"}
{"molecule": "CCCCCCCCCCCCCCCCCCOc1cc(COC(=O)CCCN2CCN(C)CC2)cc(OCCCCCCCCCCCCCCC)c1 [IAJD 153]", "readout-value": "Excellent"}
{"molecule": "CCCCCCCCCCCCCCCCCCOc1cc(COC(=O)CCCN2CCN(CCO)CC2)cc(OCCCCCCCCCCCCCCC)c1 [IAJD 154]", "readout-value": "Excellent"}
{"molecule": "CCCCCCCCCCCCCCCCCOc1cc(COC(=O)CCCN2CCN(C)CC2)cc(OCCCCCCCCCCCCCCC)c1 [IAJD 151]", "readout-value": "Excellent"}
{"molecule": "CCCCCCCCCCCCCCCCCOc1cc(COC(=O)CCCN2CCN(CCO)CC2)cc(OCCCCCCCCCCCCCCC)c1 [IAJD 152]", "readout-value": "Excellent"}

----------
protocol-details: Stability of DNPs by DLS after storage at 5° C.
Type: physicochemical
Set-up: key: U: DLS curve showed unimodal size distribution; B: DLS curve showed bimodal size distribution; M: DLS curve showed multimodal size distribution
condition-notes: after 62 days at 5° C.
Procedure: The stability of the DNPs as assayed by DLS. All the samples are prepared in acetate buffer. […]

{"molecule": "CCCCCCCCCCCOc1cc(COC(=O)CCCN2CCN(CCO)CC2)cc(OCC(CC)CCCC)c1 (stereo not shown)", "Size distribution type (DLS curve)": "(U)"}
{"molecule": "CCCCCCCCCCCCCCCCCOc1cc(COC(=O)CCCN2CCN(CCO)CC2)cc(OCCCCCCCCCCC)c1", "Size distribution type (DLS curve)": "(B)"}
{"molecule": "CCCCCCCCCCCCOc1cc(COC(=O)CCCN2CCN(CCO)CC2)cc(OCCCCCCCCCCC)c1", "Size distribution type (DLS curve)": "(B)"}
{"molecule": "CCCCCCCCCCCCCCCOc1cc(COC(=O)CCCN2CCN(CCO)CC2)cc(OCCCCCCCCCCC)c1", "Size distribution type (DLS curve)": "(B)"}
{"molecule": "CCCCCCCCCCCCCCOc1cc(COC(=O)CCCN2CCN(CCO)CC2)cc(OCCCCCCCCCCC)c1", "Size distribution type (DLS curve)": "(U)"}
{"molecule": "CCCCCCCCCCCOc1cc(COC(=O)CCCN2CCN(CCO)CC2)cc(OCCCCCCCCC)c1", "Size distribution type (DLS curve)": "(B)"}
{"molecule": "CCCCCCCCCCCCCOc1cc(COC(=O)CCCN2CCN(C)CC2)cc(OCCCCCCCCCCC)c1", "Size distribution type (DLS curve)": "(U)"}

----------
protocol-details: Stability of DNPs by DLS after storage at 5° C.
Assay type: physicochemical
Parameters: key: U: DLS curve showed unimodal size distribution; B: DLS curve showed bimodal size distribution; M: DLS curve showed multimodal size distribution
condition-notes: after 70 days at 5° C.
Description: The stability of the DNPs as assayed by DLS. All the samples are prepared in acetate buffer. […]
property: Size distribution type (DLS curve)

{"smiles-structure": "CCCCCCCCCCCCCCCCCCOc1cc(COC(=O)CCCN2CCN(CCO)CC2)cc(OCCCCCCCCCCC)c1", "readout-value": "(B)"}
{"smiles-structure": "CCCCCCCCCCCCCCCCCOc1cc(COC(=O)CCCN2CCN(C)CC2)cc(OCCCCCCCCCCC)c1", "readout-value": "(U)"}
{"smiles-structure": "CCCCCCCCCCCOc1cc(COC(=O)CCCN2CCN(CCO)CC2)cc(OCCCCCCCC)c1", "readout-value": "(B)"}
{"smiles-structure": "CCCCCCCCCCCCCOc1cc(COC(=O)CCCN2CCN(CCO)CC2)cc(OCCCCCCCCCCC)c1", "readout-value": "(B)"}
{"smiles-structure": "CCCCCCCCCCCOc1cc(COC(=O)CCCN2CCN(CCO)CC2)cc(OCCCCCCCCCC)c1", "readout-value": "(U)"}
{"smiles-structure": "CCCCCCCCCCCCCCCCOc1cc(COC(=O)CCCN2CCN(CCO)CC2)cc(OCCCCCCCCCCC)c1", "readout-value": "(B)"}
